Tested on: hyperlipidémie provoquée par l'administration de TRITON®
Assay: Triton test: hyperlipidemia induced by i.v. TRITON W.R. in fasted rats
Type: in vivo, rats WISTAR mâles
Conditions: 250 mg/kg oral; ratio to clofibrate of the same series
Source text: Dans une première série d'expériences, des produits ont été testés sur une hyperlipidémie provoquée par l'administration de TRITON® selon le protocole suivant. Les essais ont été réalisés sur des groupes de cinq rats WISTAR mâles dont le poids varie de 150 à 175 g. Pour effectuer ces essais, on provoque une hyperlipidémie chez les animaux, au moyen du produit commercialisé par la Société ROHM and HAAS sous le nom de TRITON® W. R. […]
Cholestérol total Score (par rapport au clofibrate compté pour 1) listing for selected compounds.

COc1cc(N)c(Cl)cc1S(=O)(=O)NCC(C)O (centres unmarked) [Composé n° 323] = 4,26
COc1cc([N+](=O)[O-])ccc1S(=O)(=O)NCC(C)O (centres unmarked) [compound 319] = 0,17
COc1cc([N+](=O)[O-])c(Cl)cc1S(=O)(=O)NCC(C)O (centres unmarked) [compound 322] = 0,83
COc1ccc(Cl)cc1S(=O)(=O)NCC(C)O (centres unmarked) [Composé n° 318] = 1,55

Next compound, please.
Could you tell me which Cholestérol total Score (par rapport au clofibrate compté pour 1) is on file for COc1cc([N+](=O)[O-])ccc1S(=O)(=O)NCCO [compound 277] ?
0,18

###

Test system: hyperlipidémie provoquée par l'administration de TRITON®
Assay: Triton test: hyperlipidemia induced by i.v. TRITON W.R. in fasted rats
Assay type: in vivo, rats WISTAR mâles
Conditions: 250 mg/kg oral; ratio to clofibrate of the same series
Source text: Dans une première série d'expériences, des produits ont été testés sur une hyperlipidémie provoquée par l'administration de TRITON® selon le protocole suivant. Les essais ont été réalisés sur des groupes de cinq rats WISTAR mâles dont le poids varie de 150 à 175 g. Pour effectuer ces essais, on provoque une hyperlipidémie chez les animaux, au moyen du produit commercialisé par la Société ROHM and HAAS sous le nom de TRITON® W. R. […]
MEASUREMENT NAME: Cholestérol estérifié Score (par rapport au clofibrate compté pour 1)

COc1cc([N+](=O)[O-])ccc1S(=O)(=O)NCC(C)O (stereo not shown) = 0,33
CCC(CO)NS(=O)(=O)c1cc(Cl)c([N+](=O)[O-])cc1OC (stereo not shown) = 0,63
COc1cc(N)c(Cl)cc1S(=O)(=O)N(C)CCO = 0,96

Next compound, please.
Could you tell me which Cholestérol estérifié Score (par rapport au clofibrate compté pour 1) is on file for COc1cc([N+](=O)[O-])c(Cl)cc1S(=O)(=O)NCC(C)O (stereo not shown) ?
0,27

###

Lipides totaux Score (par rapport au clofibrate compté pour 1) listing for selected molecules.
Test system: hyperlipidémie provoquée par l'administration de TRITON®
Assay: Triton test: hyperlipidemia induced by i.v. TRITON W.R. in fasted rats
Format: in vivo, rats WISTAR mâles
Conditions: 250 mg/kg oral; ratio to clofibrate of the same series

Examples with their reported Lipides totaux Score (par rapport au clofibrate compté pour 1) follow.
COc1ccc(N)cc1S(=O)(=O)N(C)CCO = 0,46
COc1cc(N)c(Cl)cc1S(=O)(=O)NCC(C)O (stereo not shown) = 1,23
COc1cc(N)ccc1S(=O)(=O)NCC(C)O (stereo not shown) = 1,48

Could you tell me which Lipides totaux Score (par rapport au clofibrate compté pour 1) is on file for CCC(CO)NS(=O)(=O)c1cc(Cl)c([N+](=O)[O-])cc1OC (stereo not shown) ?
3,09

Similarly, CCC(CO)NS(=O)(=O)c1cc(Cl)ccc1OC (stereo not shown) ?
0,69

Similarly, COc1ccc(Cl)cc1S(=O)(=O)NCC(C)O (stereo not shown) ?
0,77

Similarly, COc1ccc([N+](=O)[O-])cc1S(=O)(=O)NCC(C)O (stereo not shown) ?
2,84

Similarly, CCC(CO)NS(=O)(=O)c1cc(Cl)c(N)cc1OC (stereo not shown) ?
3,11

Similarly, COc1cc(N)c(Cl)cc1S(=O)(=O)NCCO ?
0,26

Similarly, CCC(CO)NS(=O)(=O)c1ccc([N+](=O)[O-])cc1OC (stereo not shown) ?
1,79

###

System: hyperlipidémie provoquée par l'administration de TRITON®
Assay: Triton test: hyperlipidemia induced by i.v. TRITON W.R. in fasted rats
Format: in vivo, rats WISTAR mâles
Details: 250 mg/kg oral; ratio to clofibrate of the same series
MEASUREMENT NAME: Cholestérol total Score (par rapport au clofibrate compté pour 1)

COc1cc([N+](=O)[O-])c(Cl)cc1S(=O)(=O)NCCO [compound 281] = 0,75
COc1ccc([N+](=O)[O-])cc1S(=O)(=O)NCC(C)O (stereo not shown) [compound 321] = 1,44
COc1ccc(Cl)cc1S(=O)(=O)N(C)CCO [compound 324] = 2,85
COc1cc(N)ccc1S(=O)(=O)N(C)CCO [compound 326] = 0,41
COc1ccc(N)cc1S(=O)(=O)NCCO [compound 280] = 0,11
COc1cc(N)c(Cl)cc1S(=O)(=O)NCCO [compound 282] = 0,75
CCOC(=O)C(C)(C)Oc1ccc(Cl)cc1 [Clofibrate] = 1,00
CCC(CO)NS(=O)(=O)c1cc(N)ccc1OC (stereo not shown) [Composé n° 315] = 1,83

Could you tell me which Cholestérol total Score (par rapport au clofibrate compté pour 1) is on file for CCC(CO)NS(=O)(=O)c1cc(Cl)c(N)cc1OC (stereo not shown) [compound 317] ?
0,17

Similarly, COc1ccc(Cl)cc1S(=O)(=O)NCCO [Composé n° 276] ?
0,25

###

Test system: hyperlipidémie provoquée par l'administration de TRITON®
Experiment: Triton test: hyperlipidemia induced by i.v. TRITON W.R. in fasted rats
Format: in vivo, rats WISTAR mâles
Conditions: 250 mg/kg oral; ratio to clofibrate of the same series
Cholestérol estérifié Score (par rapport au clofibrate compté pour 1) listing for selected compounds.

Examples with their reported Cholestérol estérifié Score (par rapport au clofibrate compté pour 1) follow.
COc1ccc([N+](=O)[O-])cc1S(=O)(=O)NCC(C)O (centres unmarked) = 0,95
COc1cc([N+](=O)[O-])ccc1S(=O)(=O)NCCO = 0,08
CCC(CO)NS(=O)(=O)c1cc(Cl)c(N)cc1OC (centres unmarked) = 0,52
COc1ccc(Cl)cc1S(=O)(=O)NCC(C)O (centres unmarked) = 0,65

Next compound, please.
Could you tell me which Cholestérol estérifié Score (par rapport au clofibrate compté pour 1) is on file for COc1cc(N)ccc1S(=O)(=O)NCCO ?
0,65

###

Triglycérides Score (par rapport au clofibrate compté pour 1) listing for selected molecules.
Test system: hyperlipidémie provoquée par l'administration de TRITON®
Test: Triton test: hyperlipidemia induced by i.v. TRITON W.R. in fasted rats
Type: in vivo, rats WISTAR mâles
Details: 250 mg/kg oral; ratio to clofibrate of the same series

Could you tell me which Triglycérides Score (par rapport au clofibrate compté pour 1) is on file for COc1cc([N+](=O)[O-])c(Cl)cc1S(=O)(=O)NCC(C)O (stereo not drawn) ?
1,02

Similarly, COc1cc([N+](=O)[O-])ccc1S(=O)(=O)NCC(C)O (stereo not drawn) ?
0,78

###

System: hyperlipidémie provoquée par l'administration de TRITON®
Test: Triton test: hyperlipidemia induced by i.v. TRITON W.R. in fasted rats
Format: in vivo, rats WISTAR mâles
Settings: 250 mg/kg oral; ratio to clofibrate of the same series
Source text: Dans une première série d'expériences, des produits ont été testés sur une hyperlipidémie provoquée par l'administration de TRITON® selon le protocole suivant. Les essais ont été réalisés sur des groupes de cinq rats WISTAR mâles dont le poids varie de 150 à 175 g. Pour effectuer ces essais, on provoque une hyperlipidémie chez les animaux, au moyen du produit commercialisé par la Société ROHM and HAAS sous le nom de TRITON® W. R. […]
MEASUREMENT NAME: Cholestérol estérifié Score (par rapport au clofibrate compté pour 1)

COc1cc(N)ccc1S(=O)(=O)NCC(C)O (stereo not shown) [compound 320] = 0,34
COc1ccc(Cl)cc1S(=O)(=O)N(C)CCO [compound 324] = 0,52
COc1cc(N)c(Cl)cc1S(=O)(=O)NCCO [compound 282] = 0,46
COc1cc([N+](=O)[O-])ccc1S(=O)(=O)N(C)CCO [compound 325] = 0,04
COc1cc(N)ccc1S(=O)(=O)N(C)CCO [compound 326] = 0,67

Could you tell me which Cholestérol estérifié Score (par rapport au clofibrate compté pour 1) is on file for CCOC(=O)C(C)(C)Oc1ccc(Cl)cc1 [Clofibrate] ?
1,00

Similarly, COc1ccc(N)cc1S(=O)(=O)NCCO [compound 280] ?
0,08

The measurements presented in this section are drawn from patent EP0081425B1.
